src = ChEMBL document CHEMBL5335783

Listed here are molecules together with their documented inhibition at 72 h, 3.14 µM.
# TEST: Cytotoxicity against HEK293 cells assessed as reduction in cell proliferation at 3.14 uM incubated for 72 hrs by SRB assay relative to control
# Type: toxicity, cell-based
# MEASUREMENT PARAMETERS: human, read-out: Activity

MOLECULE	UNITS	inhibition at 72 h, 3.14 µM
O=P(O)(O)CCc1ccc(O)c(O)c1	%	0.1
O=C(O)C(CP(=O)(O)O)c1ccc(O)c(O)c1 (racemic)	%	-0.2
O=C(O)CCP(=O)(O)CC(C(=O)O)c1ccc(O)c(O)c1 (racemic)	%	10.1

====

# TEST: Cytotoxicity against HEK293 cells assessed as reduction in cell proliferation at 1 uM incubated for 72 hrs by SRB assay relative to control
# Type: toxicity, cell-based
# MEASUREMENT PARAMETERS: human, read-out: Activity

COMPOUND	inhibition at 72 h, 1 µM, %
O=C(O)CCP(=O)(O)CC(C(=O)O)c1ccc(O)c(O)c1 (racemic)	8.1
O=C(O)C(CP(=O)(O)O)c1ccc(O)c(O)c1 (racemic)	-0.8
O=P(O)(O)CCc1ccc(O)c(O)c1	-0.9

====

# TEST: Inhibition of Sporosarcina pasteurii CCM 2056 native urease using urea as substrate preincubated for 1 hr followed by substrate addition and measured for 1.5 hrs by colorimetric method
just bin them by Ki: low range = under 7 µM, mid range = from 7 µM up to 30 µM, high range = 30 µM and over

MOLECULE	CLASS
COC(=O)CCP(=O)(O)CC(C(=O)OC)c1ccc(O)c(O)c1 (stereo not given)	high range
O=C(O)CCP(=O)(O)CC(C(=O)O)c1ccc(O)c(O)c1 (racemic)	low range
O=C(O)C(CP(=O)(O)O)c1ccc(O)c(O)c1 (racemic)	low range
O=C(O)C(CP(=O)(O)O)c1cc(O)c(O)cc1Br (racemic)	high range
O=P(O)(O)CCc1ccc(O)c(O)c1	mid range
COC(=O)C(CP(=O)(O)CC(C(=O)OC)c1ccc(O)c(O)c1)c1ccc(O)c(O)c1 (mixture of isomers)	mid range
COC(=O)C(CP(=O)(O)O)c1ccc(O)c(O)c1 (racemic)	high range
O=C(O)C(C[PH](=O)O)c1ccc(O)c(O)c1 (racemic)	high range
CC(=O)NO [ACETOHYDROXAMIC ACID]	low range

====

# TEST: Cytotoxicity against mouse Balb/3T3-L1 cells assessed as reduction in cell proliferation at 1 uM incubated for 72 hrs by SRB assay relative to control
# Format: toxicity, cell-based
# MEASUREMENT PARAMETERS: read-out: Activity
Listed here are molecules together with their documented inhibition at 72 h, 1 µM.

MOLECULE	UNITS	inhibition at 72 h, 1 µM
O=C(O)CCP(=O)(O)CC(C(=O)O)c1ccc(O)c(O)c1 (racemic)	%	13.4
O=P(O)(O)CCc1ccc(O)c(O)c1	%	15
O=C(O)C(CP(=O)(O)O)c1ccc(O)c(O)c1 (racemic)	%	18.6

====

# TEST: Stability of compound in methanol assessed as rate of hydrolysis measured after 3 days by NMR analysis
# Type: physicochemical
# MEASUREMENT PARAMETERS: time 3 day, read-out: Activity
Listed here are molecules together with their documented degraded at 72 h.
RECORDED ENDPOINT: degraded at 72 h

MOLECULE	REPORTED VALUE
COC(=O)C(CP(=O)(O)O)c1ccc(O)c(O)c1 (racemic)	< 5%
COC(=O)CCP(=O)(O)CC(C(=O)OC)c1ccc(O)c(O)c1 (configuration not stated)	< 5%

====

# Tested on: Sporosarcina pasteurii
# TEST: Inhibition of Sporosarcina pasteurii CCM 2056 native urease using urea as substrate in presence of DTT measured for 1.5 hrs by colorimetric method
The source made the active and inactive calls. No cut-off for these calls is given here.
Possible outcomes: active, inactive

COMPOUND	TGT	CLASS
COC(=O)CCP(=O)(O)CC(C(=O)OC)c1ccc(O)c(O)c1 (centres undefined)	Sporosarcina pasteurii	active
O=C(O)C(CP(=O)(O)O)c1ccc(O)c(O)c1 (racemic)	Sporosarcina pasteurii	inactive
O=P(O)(O)CCc1ccc(O)c(O)c1	Sporosarcina pasteurii	active
O=C(O)C(C[PH](=O)O)c1ccc(O)c(O)c1 (racemic)	Sporosarcina pasteurii	inactive
COC(=O)C(CP(=O)(O)O)c1ccc(O)c(O)c1 (racemic)	Sporosarcina pasteurii	active
COC(=O)C(CP(=O)(O)CC(C(=O)OC)c1ccc(O)c(O)c1)c1ccc(O)c(O)c1 (mixture of isomers)	Sporosarcina pasteurii	inactive
O=C(O)CCP(=O)(O)CC(C(=O)O)c1ccc(O)c(O)c1 (racemic)	Sporosarcina pasteurii	inactive
O=C(O)C(CP(=O)(O)O)c1cc(O)c(O)cc1Br (racemic)	Sporosarcina pasteurii	active
O=C(O)C(CP(=O)(O)CC(C(=O)O)c1ccc(O)c(O)c1)c1ccc(O)c(O)c1 (mixture of isomers)	Sporosarcina pasteurii	inactive
